The entries below come with measured furin cleavage Z-score values attached.
Molecular target: furin, P09958;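 also: purified furin at 1:10 enzyme:substrate in 50 mM HEPES pH 7.5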
Sequence (P09958 whole entry): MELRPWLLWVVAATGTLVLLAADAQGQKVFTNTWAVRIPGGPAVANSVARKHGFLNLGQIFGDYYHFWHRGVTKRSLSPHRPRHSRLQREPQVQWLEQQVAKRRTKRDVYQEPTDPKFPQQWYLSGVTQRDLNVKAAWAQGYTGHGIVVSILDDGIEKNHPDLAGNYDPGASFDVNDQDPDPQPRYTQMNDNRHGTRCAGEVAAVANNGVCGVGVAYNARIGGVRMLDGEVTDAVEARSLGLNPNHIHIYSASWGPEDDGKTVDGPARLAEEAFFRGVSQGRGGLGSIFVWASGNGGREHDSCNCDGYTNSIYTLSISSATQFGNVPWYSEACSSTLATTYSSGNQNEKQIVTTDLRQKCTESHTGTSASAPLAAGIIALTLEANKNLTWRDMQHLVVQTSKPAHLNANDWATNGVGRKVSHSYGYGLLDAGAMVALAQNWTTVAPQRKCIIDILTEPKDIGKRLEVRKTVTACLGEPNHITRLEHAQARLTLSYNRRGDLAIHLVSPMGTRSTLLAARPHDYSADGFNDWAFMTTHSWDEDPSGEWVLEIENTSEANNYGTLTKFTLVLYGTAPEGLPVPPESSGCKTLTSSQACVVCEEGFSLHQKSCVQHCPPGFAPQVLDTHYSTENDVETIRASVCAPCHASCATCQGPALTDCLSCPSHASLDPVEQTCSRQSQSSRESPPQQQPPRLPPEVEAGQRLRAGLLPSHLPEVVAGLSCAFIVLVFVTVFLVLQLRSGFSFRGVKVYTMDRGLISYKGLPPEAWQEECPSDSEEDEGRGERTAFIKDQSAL
Experiment: furin cleavage Z-score vs untreated control; higher = more cleavage, active = 3.5 or more, inactive = 1 or less, 8 variable residues between constant flanks
Details: 30 min
The other results are listed elsewhere or left out. The true hit rate is not given.
Answer with a bare number; do not write a unit.

Some solved cases for reference:
# orderedResidues, furin cleavage Z-score
records = [
    ("CALTDPSHITAGNASASA [HC1248]", -1.35),
    ("CATTTCSGSWAGNASASA [HC1878]", -0.313),
    ("CAGQARWKRPAGNASASA [FS-656]", -0.505),
    ("CAEEIRVNRSAGNASASA [FS-229]", 1.69),
    ("CATPARKKRLAGNASASA [FS-729]", 8.77),
]

Ask | Given CALRAYMNTPAGNASASA [HC930] , respond with its furin cleavage Z-score.
Reply | 0.0807

Ask | Read off the recorded furin cleavage Z-score for CAGCGRICRDAGNASASA [FS-1455]
Reply | 3.06

Ask | Quick one: give measured furin cleavage Z-score for CALMHRKKRLAGNASASA [FS-351]
Reply | 9.08

Ask | Determine from records and report furin cleavage Z-score for CALQGREQLTAGNASASA [FS-1882]
Reply | -0.352

Ask | Complete the entry with furin cleavage Z-score for CAEVVTGTWVAGNASASA [HC142]
Reply | 1.54

Ask | Return the recorded furin cleavage Z-score value; entry: CARSPRSASTAGNASASA [FS-1932]
Reply | 7.33

Ask | Return the recorded furin cleavage Z-score value; entry: CARARRFCRDAGNASASA [FS-2547]
Reply | 8.57

Ask | Give the measured furin cleavage Z-score for CARKKRATHSAGNASASA [FS-2562]
Reply | 9.97

Ask | Give the reported furin cleavage Z-score for this sequence. CARARRFSGLAGNASASA [FS-1683]
Reply | 0.853

Ask | Answer with reported furin cleavage Z-score of CAPRAAERRSAGNASASA [FS-74]
Reply | -1.56

Ask | In one line, give reported furin cleavage Z-score of the entry CALTTSCGNTAGNASASA [HC1513] .
Reply | -0.123

Ask | Tell me measured furin cleavage Z-score for CARKNRSKNQAGNASASA [FS-3223] please.
Reply | 0.1

Ask | Read the entry CATTTRKNRSAGNASASA [FS-1498] and write its reported furin cleavage Z-score.
Reply | 7.73

Ask | Quote furin cleavage Z-score reported for CALTYRAKRTAGNASASA [FS-1033] please.
Reply | 9.3

Ask | Return the recorded furin cleavage Z-score value; entry: CAEVVSSTWVAGNASASA [HC135]
Reply | 0.771

Ask | Give me measured furin cleavage Z-score, please, for this sequence: CALSDRKKRLAGNASASA [FS-1137]
Reply | 4.87

Ask | State its furin cleavage Z-score: CALRARKNRSAGNASASA [FS-942]
Reply | 6.93

Ask | Identify measured furin cleavage Z-score associated with CARKKRYDRKAGNASASA [FS-2395]
Reply | 7.88

Ask | Using the record for CANAVAYYRGAGNASASA [HC867] , state its measured furin cleavage Z-score.
Reply | 1.73

Ask | Output measured furin cleavage Z-score for this item: CARSKRSLSCAGNASASA [FS-2183]
Reply | 5.07

Ask | Complete the entry with furin cleavage Z-score for CAGSLRKKRLAGNASASA [FS-1528]
Reply | 8.69

Ask | Specify measured furin cleavage Z-score for CARKKREKKKAGNASASA [FS-2964] .
Reply | 0.927

Ask | Give the reported value of furin cleavage Z-score for this record: CAVVCISMSYAGNASASA [HC85]
Reply | -0.461

Ask | Assign furin cleavage Z-score to the following record: CARKKRSTKKAGNASASA [FS-2270]
Reply | 6.85

Ask | Identify measured furin cleavage Z-score corresponding to CARSKRSKNQAGNASASA [FS-1973]
Reply | 6.19
